test system: EA.hy.926; assay: Arginine uptake by endothelial cell line EA.hy.926; format: cell-based; details: Homo sapiens, compound at 10^-8 M (top value), read-out: Arg uptake (% control) from FIG. 4

compound | activity at 0.01 µM / %
N=C(NCc1cc(C(F)(F)F)cc(C(F)(F)F)c1)Nc1ccc(C(N)=O)cc1OCC1CCC1 | 103
COc1ccccc1CNC(=N)Nc1ccc(C(N)=O)cc1OCC1CCCCC1 | 153
CC(CNC(=N)Nc1ccc(C(N)=O)cc1OCC1CC1)c1ccccc1 (stereo not drawn) | 116
N=C(NCc1ccc2c(c1)OCO2)Nc1ccc(C(N)=O)cc1OCC1CCCCO1 (stereo not drawn) | 119
Cc1ccc(CNC(=N)Nc2ccc(C(N)=O)cc2OCC2CCC2)cc1 | 179
N=C(NCc1cc(C(F)(F)F)cc(C(F)(F)F)c1)Nc1ccc(C(N)=O)cc1OCC1CCCCC1 | 125
N=C(NCc1ccccc1F)Nc1ccc(C(N)=O)cc1OCC1CCC1 | 159
N=C(NCc1ccccc1)Nc1ccc(C(N)=O)cc1OCc1ccccc1 | 167
CC(CNC(=N)Nc1ccc(C(N)=O)cc1OCC1CCCCO1)c1ccccc1 (stereo not drawn) | 135
N=C(NCNc1ccc([N+](=O)[O-])cn1)Nc1ccc(C(N)=O)cc1OCc1ccccc1 | 176
N=C(NCc1ccccc1)Nc1ccc(C(N)=O)cc1OCC1CCCCO1 (stereo not drawn) | 140
N=C(NCc1ccc(Cl)c(Cl)c1)Nc1ccc(C(N)=O)cc1OCC1CCC1 | 87

Entry source: patent US7956219B2
